- Test system: affinity purified β2GPI-dependent antiphospholipid antibody
- PROCEDURE_SUMMARY: Competitive inhibition ELISA: recombinant β2GPI proteins compete for antibody binding to coated full length recombinant β2GPI
- Design: species or system human
- ASSAY_CONDITIONS: Ab 7008
- Experimental: Microtiter plates (MaxiSorp™, Nalge Nunc International, Denmark) were coated with 50 μl of full length recombinant β2GPI at 10 μg/ml in 0.1 M bicarbonate, pH 9.5, incubated overnight at 4° C., washed three times with 0.15 M PBS, pH 7.2, and blocked for one hour at room temperature with 75 μl of 2% Non-fat Dried Milk (Carnation, 2% NFDM). […] The Optical Density, at 550 nm, was determined by reading the plates in a microplate autoreader (Bio-Teck Instruments, model EL3 11). […]
Short version: Max (maximum inhibition observed at concentrations tested) at least 40% is rule met, less is rule not met.

---45: recombinant β2GPI deletion mutant with domains 4, 5 (protein) GREVKCPFPSRPDNGFVNYPAKPTLYYKDKATFGCHDGYSLDGPEEIECTKLGNWSAMPSCKASCKLPVKKATVVYQGERVKIQEKFKNGMLHGDKVSFFCKNKEKKCSYTEDAQCIDGTIEVPKCFKEHSSLAFWKTDASDVKPCGHHHHHH; rule not met
--345: recombinant β2GPI deletion mutant with domains 3, 4, 5 (protein) GRIICPPPSIPTFATLRVYKPSAGNNSLYRDTAVFECLPQHAMFGNDTITCTTHGNWTKLPECREVKCPFPSRPDNGFVNYPAKPTLYYKDKATFGCHDGYSLDGPEEIECTKLGNWSAMPSCKASCKLPVKKATVVYQGERVKIQEKFKNGMLHGDKVSFFCKNKEKKCSYTEDAQCIDGTIEVPKCFKEHSSLAFWKTDASDVKPCGHHHHHH; rule not met

Switching to the query record.
Has 1234-: recombinant β2GPI deletion mutant with domains 1, 2, 3, 4 (protein) GRTCPKPDDLPFSTVVPLKTFYEPGEEITYSCKPGYVSRGGMRKFICPLTGLWPINTLKCTPRVCPFAGILENGAVRYTTFEYPNTISFSCNTGFYLNGADSAKCTEEGKWSPELPVCAPIICPPPSIPTFATLRVYKPSAGNNSLYRDTAVFECLPQHAMFGNDTITCTTHGNWTKLPECREVKCPFPSRPDNGFVNYPAKPTLYYKDKATFGCHDGYSLDGPEEIECTKLGNWSAMPSCGHHHHHH a recorded Max (maximum inhibition observed at concentrations tested) greater than or equal to 40%?
rule met
